system tested: p38a activated, mitogen-activated protein kinase-activated protein kinase 2 (MAPKAP-K2 or MK2) enzyme (Homo sapiens (Human), UniProt P49137)
Sequence (P49137 whole entry): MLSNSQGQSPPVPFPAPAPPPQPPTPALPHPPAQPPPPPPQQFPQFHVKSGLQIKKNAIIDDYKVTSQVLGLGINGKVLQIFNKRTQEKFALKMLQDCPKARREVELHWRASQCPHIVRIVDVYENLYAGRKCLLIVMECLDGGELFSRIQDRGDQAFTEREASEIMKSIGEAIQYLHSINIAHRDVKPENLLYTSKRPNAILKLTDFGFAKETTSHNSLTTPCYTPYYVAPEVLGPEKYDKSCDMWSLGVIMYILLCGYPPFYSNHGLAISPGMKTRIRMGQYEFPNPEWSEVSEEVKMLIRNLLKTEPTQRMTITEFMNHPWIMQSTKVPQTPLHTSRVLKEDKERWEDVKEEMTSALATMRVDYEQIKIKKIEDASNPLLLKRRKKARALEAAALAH
protocol text: MK2 Omnia continuous-read kinase assay for compound potency
measurement context: [MK-2]=0.4 nM, [ATP]=10 μM, [ST3-Sox]=10 μM; room temperature
pIC50: −log10 of the molar value.
measure name: pIC50

query_smiles=C=Cc1cc(-c2ccc3c(ccc4sc5c(c43)NC[C@@H](C)NC5=O)n2)cc(C)n1 result=8.10
query_smiles=C[C@@H]1CNc2c(sc3ccc4nc(-c5cc(Cl)nc(C#CC(C)(C)N)n5)ccc4c23)C(=O)N1 result=8.40
query_smiles=COc1cnc(Cl)nc1-c1ccc2c(ccc3sc4c(c32)NC[C@@H](C)NC4=O)n1 result=6.54
query_smiles=C=Cc1cc(-c2ccc3c(ccc4sc5c(c43)NC[C@@H](C)NC5=O)n2)c(C2CC2)cn1 result=8.30
query_smiles=C[C@@H]1CNc2c(sc3ccc4nc(-n5cnc(Cl)n5)ccc4c23)C(=O)N1 result=7.04
query_smiles=C=Cc1nccn1-c1ccc2c(ccc3sc4c(c32)NC[C@@H](C)NC4=O)n1 result=9.00
query_smiles=C=Cc1nc2c(c(-c3ccc4c(ccc5sc6c(c54)NC[C@@H](C)NC6=O)n3)n1)CN(C)CC2 result=6.54
query_smiles=C=Cc1cc(-c2ccc3c(ccc4sc5c(c43)NC[C@@H](C)NC5=O)n2)c(C(F)F)cn1 result=8.40
query_smiles=C[C@@H]1CNc2c(sc3ccc4nc(-c5nc(Cl)ncc5COC5(C)COC5)ccc4c23)C(=O)N1 result=7.74
query_smiles=C=Cc1cnn(-c2ccc3c(ccc4sc5c(c43)NC[C@@H](C)NC5=O)n2)c1 result=7.00
query_smiles=C=Cc1nc(-c2ccc3c(ccc4sc5c(c43)NC[C@@H](C)NC5=O)n2)cnc1C result=6.74
query_smiles=C=C(C)c1cc(-c2ccc3c(ccc4sc5c(c43)NC[C@@H](C)NC5=O)n2)nc(COCC)n1 result=8.00
query_smiles=C=Cc1cc(-c2ccc3c(ccc4sc5c(c43)NC[C@@H](C)NC5=O)n2)c(OCCN2CCOCC2)nn1 result=6.59
query_smiles=C=C(C)c1ncc(F)c(-c2ccc3c(ccc4sc5c(c43)NC[C@@H](C)NC5=O)n2)n1 result=6.37
query_smiles=C=Cc1cc(-c2ccc3c(ccc4sc5c(c43)NC[C@@H](C)NC5=O)n2)c(CC)cn1 result=7.89
query_smiles=C[C@@H]1CNc2c(sc3ccc4nc(-n5ccnc5C#N)ccc4c23)C(=O)N1 result=7.80

---

system tested: p38a activated, mitogen-activated protein kinase-activated protein kinase 2 (MAPKAP-K2 or MK2) enzyme (Homo sapiens (Human))
protocol text: MK2 Omnia continuous-read kinase assay for compound potency
measurement context: [MK-2]=0.4 nM, [ATP]=10 μM, [ST3-Sox]=10 μM; room temperature
pIC50: −log10 of the molar value.
measure name: pIC50

molecule=C=Cc1cc(-c2ccc3c(ccc4sc5c(c43)NC[C@@H](C)NC5=O)n2)c(CN2C[C@@H](C)O[C@@H](C)C2)cn1 result=6.99
molecule=C=Cc1cc(-c2ccc3c(ccc4sc5c(c43)NC[C@@H](C)NC5=O)n2)c(CO)cn1 result=8.30
molecule=C=Cc1cc(-c2ccc3c(ccc4sc5c(c43)NC[C@@H](C)NC5=O)n2)ccn1 result=9.00
molecule=C#Cc1nc2c(c(-c3ccc4c(ccc5sc6c(c54)NC[C@@H](C)NC6=O)n3)n1)CN(C)CC2 result=6.28
molecule=C#Cc1cc(-c2ccc3c(ccc4sc5c(c43)NC[C@@H](C)NC5=O)n2)c(C#N)cn1 result=8.70
molecule=C=Cc1nnc(C)n1-c1ccc2c(ccc3sc4c(c32)NC[C@@H](C)NC4=O)n1 result=6.00
molecule=C#Cc1cc(-c2ccc3c(ccc4sc5c(c43)NC[C@@H](C)NC5=O)n2)cc(CO)n1 result=7.22
molecule=C#Cc1nncn1-c1ccc2c(ccc3sc4c(c32)NC[C@@H](C)NC4=O)n1 result=6.26
molecule="C=Cc1cc(-c2ccc3c(ccc4sc5c(c43)NCC(C)NC5=O)n2)cc(N2CC3CC2CO3)n1 (racemic)" result=7.96
molecule=C/C=C\c1cc(-c2ccc3c(ccc4sc5c(c43)NC[C@@H](C)NC5=O)n2)nc(COCC)n1 result=7.92
molecule=C#Cc1cc(-c2ccc3c(ccc4sc5c(c43)NC[C@@H](C)NC5=O)n2)cc(N2CCC2)n1 result=6.74
molecule=[2H]C([2H])([2H])c1cnc(C=C)cc1-c1ccc2c(ccc3sc4c(c32)NC[C@@H](C)NC4=O)n1 result=8.05
molecule=C#Cc1ncc(OC)c(-c2ccc3c(ccc4sc5c(c43)NC[C@@H](C)NC5=O)n2)n1 result=6.63
molecule=C=Cc1ncc(OC)c(-c2ccc3c(ccc4sc5c(c43)NC[C@@H](C)NC5=O)n2)n1 result=6.61
molecule=C=Cc1cc(-c2ccc3c(ccc4sc5c(c43)NC[C@@H](C)NC5=O)n2)c(CN2CCC(C(F)(F)F)CC2)cn1 result=7.04

---

Quick reference: IC50 of the listed items.
system tested: p38a activated, mitogen-activated protein kinase-activated protein kinase 2 (MAPKAP-K2 or MK2) enzyme (Homo sapiens (Human), UniProt P49137)
protocol text: MK2 Omnia continuous-read kinase assay for compound potency
measurement context: [MK-2]=0.4 nM, [ATP]=10 μM, [ST3-Sox]=10 μM; room temperature
measure name: IC50 (nM)

compound="C[C@@H]1CNc2c(sc3ccc4nc(-c5cc(Cl)nc(C6=CCN(C)CC6)c5)ccc4c23)C(=O)N1 [Example I-100]" measure_name=IC50 result=62
compound="C=Cc1nc(Cl)c(Cl)n1-c1ccc2c(ccc3sc4c(c32)NC[C@@H](C)NC4=O)n1 [Example I-251]" measure_name=IC50 result=192
compound="C#Cc1cc(-c2ccc3c(ccc4sc5c(c43)NC[C@@H](C)NC5=O)n2)cc(C2CCN(C)CC2)n1 [Example I-107]" measure_name=IC50 result=22
compound="C[C@@H]1CNc2c(sc3ccc4nc(-c5cc(Cl)nc(COC6CCOCC6)n5)ccc4c23)C(=O)N1 [Example I-23]" measure_name=IC50 result=487

---

Quick reference: pIC50 of the listed items.
system tested: p38a activated, mitogen-activated protein kinase-activated protein kinase 2 (MAPKAP-K2 or MK2) enzyme (Homo sapiens (Human), UniProt P49137)
protocol text: MK2 Omnia continuous-read kinase assay for compound potency
measurement context: [MK-2]=0.4 nM, [ATP]=10 μM, [ST3-Sox]=10 μM; room temperature
pIC50: −log10 of the molar value.
measure name: pIC50

compound="C[C@@H]1CNc2c(sc3ccc4nc(-c5cncc(Cl)c5)ccc4c23)C(=O)N1 [Example I-81]" result=7.05
compound="C=Cc1cc(-c2ccc3c(ccc4sc5c(c43)NC[C@@H](C)NC5=O)n2)cc(N2CC(F)(F)C2)n1 [Example I-184]" result=6.76
compound="C=Cc1cc(-c2ccc3c(ccc4sc5c(c43)NC[C@@H](C)NC5=O)n2)cc(Cl)n1 [Example I-72]" result=7.24
compound="C#Cc1cc(-c2ccc3c(ccc4sc5c(c43)NC[C@@H](C)NC5=O)n2)nc(CO)n1 [Example I-78]" result=9.00
compound="C=Cc1cc(-c2ccc3c(ccc4sc5c(c43)NC[C@@H](C)NC5=O)n2)cc(N2CCC(F)(F)CC2)n1 [Example I-168]" result=6.59
compound="C[C@@H]1CNc2c(sc3ccc4nc(-c5nc(Cl)ncc5COC5CCOCC5)ccc4c23)C(=O)N1 [Example I-24]" result=7.01
compound="C[C@@H]1CNc2c(sc3ccc4nc(-c5cc(/C=C/CN(C)C)ncn5)ccc4c23)C(=O)N1 [Example I-115]" result=7.43
compound="C#Cc1cc(-c2ccc3c(ccc4sc5c(c43)NC[C@@H](C)NC5=O)n2)c(F)cn1 [Example I-71]" result=7.41
compound="C[C@@H]1CNc2c(sc3ccc4nc(-c5nc(Cl)ncc5C#N)ccc4c23)C(=O)N1 [Example I-9]" result=7.01
compound="C#Cc1cc(-c2ccc3c(ccc4sc5c(c43)NC[C@@H](C)NC5=O)n2)cc(N2CCOCC2)n1 [Example I-157]" result=6.67
compound="C=Cc1ncnn1-c1ccc2c(ccc3sc4c(c32)NC[C@@H](C)NC4=O)n1 [Example I-214]" result=8.70
compound="C#Cc1cc(-c2ccc3c(ccc4sc5c(c43)NC[C@@H](C)NC5=O)n2)c(NC)nn1 [Example I-104]" result=6.71
compound="C=Cc1csc(-c2ccc3c(ccc4sc5c(c43)NC[C@@H](C)NC5=O)n2)n1 [Example I-149]" result=7.02
compound="C#Cc1cc(-c2ccc3c(ccc4sc5c(c43)NC[C@@H](C)NC5=O)n2)cc(Cl)n1 [Example I-73]" result=7.12
compound="C[C@@H]1CNc2c(sc3ccc4nc(-c5cc(Cl)nc(N6CCN(C)CC6)n5)ccc4c23)C(=O)N1 [Example I-17]" result=6.86
